assay: concentration of the compound in blood after oral administration to rats; assay type: in vivo, Male wister rats; settings: 1.0 hour, rat, 50 mg/kg, bioassay (Escherichia coli SC507)
value-kind: concentration at 1 h

{"smiles-text": "N#CCSC1=C(C(=O)O)N2C(=O)[C@@H](NC(=O)/C(=N\\OCC(=O)O)c3csc(N)n3)[C@H]2SC1", "concentration at 1 h": "28700 ng/mL"}
{"smiles-text": "Nc1nc(/C(=N/OCC(=O)O)C(=O)N[C@@H]2C(=O)N3C(C(=O)O)=C(SCCF)CS[C@H]23)cs1", "concentration at 1 h": "25600 ng/mL"}

# context switch: different compound, same concentration at 1 h
Qu. Kindly indicate its recorded concentration at 1 h. Item: NCCCSC1=C(C(=O)O)N2C(=O)[C@@H](NC(=O)/C(=N\OCC(=O)O)c3csc(N)n3)[C@H]2SC1
Ans. 11900 ng/mL
